test system: SW-620 colon; test: NCI-60 one-dose screen, 48 h (100 = growth as untreated, 0 = no growth, -100 = all killed); settings: 10 µM unless noted
Compounds without any hit were thinned out: in the full panel of roughly 83,000, 20% have a hit.
Output t for growth not less than 30%; output f otherwise.

COMPOUND	CLASSIFICATION
O=C(c1ccccc1)[C@H]1[C@@H]2CCCN2[C@]2(C(=O)Nc3ccc(F)cc32)[C@]12C(=O)Nc1ccccc12	t
COc1ccc(C(=O)Cn2cnc3c(Nc4cc(C(=O)Nc5ccc(N6CCN(CCO)CC6)cc5)ccc4C)ncnc32)cc1	t
CC(C)(C)NC(C1=CC(C)(C)c2ccccc2C1=O)c1ccccc1 (centres undefined)	f
Cc1ccccc1C[P+](c1ccccc1)(c1ccccc1)c1ccccc1	f
C=C1C(=O)O[C@H]2[C@H]1CC/C(COC(=O)n1ccnc1C)=C\CC[C@@]1(C)O[C@@H]21	t
O=C(C[n+]1ccccc1Cl)c1ccc2c(c1)CCCC2	t
CC(/C=C/C=C(\C)[C@H](O)[C@H](C)C(=O)O[C@H]1C[C@H](C)C=C2C=C[C@@]3(C)O[C@@H](O)CC(=O)[C@]3(C)[C@H]21)=C\C=C\C(=O)O	f

Now take the following compound into account.
Qu. Does growth meet or surpass 30% for CCOc1ccc(NC(=O)Nc2cc(C(C)C)ccc2C)cc1 ?
Ans. t
